- protocol-text: Metabolic stability in Sprague-Dawley rat pooled liver microsomes assessed as compound remaining after 2 days by HPLC analysis in absence of NADPH generating system
- Type: ADME
- condition-notes: read-out: Stability
attribute-measured: remaining at 48 h

> print(dat)
                                   compound  value.observed
1  Nc1nnc(SC(C(=O)Nc2cc(Cl)cc(Cl)c2)c2ccccc2)[nH]1 (stereo unspecified)           > 80%

---

- Tested on: HEK-293T
- protocol-text: Cytotoxicity against human HEK293T cells after 24 hrs
- Type: cell-based
pIC50: −log10 of the molar value.
# pIC50 per record follows
attribute-measured: pIC50

> print(dat)
                                   compound  experimental.target  attribute.measured  value.observed
1  O=C(Oc1coc(CSc2nnc(NC(=O)C3CC3)s2)cc1=O)c1cccc(F)c1             HEK-293T               pIC50          < 3.87
2  Nc1nnc(SC(C(=O)Nc2cc(Cl)cc(Cl)c2)c2ccccc2)[nH]1 (configuration not stated)             HEK-293T               pIC50          < 3.86
